Test system: RARa homodimer (NR concentration 270 nM)
Assay: PBM binding z-score (relative to random genomic background probes); higher = stronger binding; sequences stand for … in GC…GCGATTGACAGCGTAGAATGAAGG
Experimental Endpoint: PBM binding z-score
Answers are plain numbers.

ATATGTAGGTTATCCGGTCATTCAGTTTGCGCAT 0.474
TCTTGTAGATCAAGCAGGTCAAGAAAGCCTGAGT 0.192
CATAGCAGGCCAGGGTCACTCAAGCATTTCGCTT -0.0529
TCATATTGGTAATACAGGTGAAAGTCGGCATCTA 1.43
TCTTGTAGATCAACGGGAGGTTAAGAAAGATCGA 0.281
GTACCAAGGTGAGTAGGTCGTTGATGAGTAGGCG 0.166
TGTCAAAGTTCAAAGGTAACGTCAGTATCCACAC 0.737
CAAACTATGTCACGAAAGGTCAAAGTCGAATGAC 2.87
CGTCCAAGGTCAAAGGTCTGTGAAGAGATGACGG 0.626
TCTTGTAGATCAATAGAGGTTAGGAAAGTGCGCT 0.518

# batch: return PBM binding z-score for each of the 2 sequences below
1. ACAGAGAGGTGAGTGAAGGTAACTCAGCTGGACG
2. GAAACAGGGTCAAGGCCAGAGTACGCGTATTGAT

1. 0.175
2. 0.267
